Measured pIC50 by item
# System: IGROV-1 (Ovarian cancer cells)
# EXPERIMENTAL_PROTOCOL: Short term (72 h) cytotoxicity assay
# Type: cell-based
# ASSAY_CONDITIONS: Homo sapiens; IGROV-1, 72 h cytotoxicity
Just so you know, pIC50 here is -log10 of the concentration in molar units; reply with that number alone.

Worked cases, answers included:
| COMPOUND | pIC50 |
| --- | --- |
| C#CC(F)(F)[C@]1(O)CCC2C3CCC4=CC(=O)CCC4=C3C(c3ccc(SC)cc3)C[C@@]21C (stereo partly shown) [EC363] | 7.52 |
| C#CC(F)(F)[C@]1(O)CCC2C3CCC4=CC(=O)CCC4=C3C(c3ccc(C4CC4)cc3)C[C@@]21C (stereo partly shown) [EC330] | 7.46 |
| C#CC(F)(F)[C@]1(O)CCC2C3CCC4=CC(=O)CCC4=C3C(c3ccc(C4CCCCC4)cc3)C[C@@]21C (stereo partly shown) [EC360] | 7.66 |
| C#CC(F)(F)[C@]1(O)CC[C@H]2[C@@H]3CCC4=CC(=O)CCC4=C3[C@@H](c3ccc(-c4c(C)cc(C)cc4C)cc3)C[C@@]21C [EC359] | 7.60 |
| C#CC(F)(F)[C@]1(O)CCC2C3CCC4=CC(=O)CCC4=C3C(c3ccc(S(=O)(=O)C4CC4)cc3)C[C@@]21C (stereo partly shown) [EC361] | 6.46 |
| C#CC(F)(F)[C@]1(O)CCC2C3CCC4=CC(=O)CCC4=C3C(c3ccc(C(=C)C)cc3)C[C@@]21C (stereo partly shown) [EC358] | 7.46 |

Consider now this further compound.
q: Which pIC50 is reported for this compound? C#CC(F)(F)[C@]1(O)CCC2C3CCC4=CC(=O)CCC4=C3C(c3ccc(CCCCCCC)cc3)C[C@@]21C (stereo partly shown) [EC362]
a: 8.12

Reference for the values: patent US10053485B2
